Data origin: the supplement of paper PMC9112550

Examples of sequences with documented shrunken log2 fold change follow.
# Tested on: Escherichia coli TOP10
# Test Description: shrunken log2 fold change of peptide-encoding DNA abundance (4.5 h post-induction vs induction); higher = less antimicrobial activity (less host growth inhibition)
# Condition Parameters: time post-induction: 4.5 h; library: site-saturation at positions 5, 18, 19, 20
Metric: shrunken log2 fold change

{"Polymer Sequence": "RRIRFRPPRLPRPRPRPLDYPRP", "Value Reported": -0.0121}
{"Polymer Sequence": "RRIRPRPPRLPRPRPRPLRRPRP", "Value Reported": 0.805}
{"Polymer Sequence": "RRIRHRPPRLPRPRPRPSKNPRP", "Value Reported": -0.163}
{"Polymer Sequence": "RRIRVRPPRLPRPRPRPSNWPRP", "Value Reported": -0.331}
{"Polymer Sequence": "RRIRHRPPRLPRPRPRPCTCPRP", "Value Reported": -0.0115}
{"Polymer Sequence": "RRIRPRPPRLPRPRPRPLYDPRP", "Value Reported": 2.73}
{"Polymer Sequence": "RRIRNRPPRLPRPRPRPWGVPRP", "Value Reported": 0.112}
{"Polymer Sequence": "RRIRIRPPRLPRPRPRPSSYPRP", "Value Reported": -0.207}
{"Polymer Sequence": "RRIRIRPPRLPRPRPRPHAWPRP", "Value Reported": 0.0947}
{"Polymer Sequence": "RRIRMRPPRLPRPRPRPFSFPRP", "Value Reported": -0.0784}
{"Polymer Sequence": "RRIRERPPRLPRPRPRPKGCPRP", "Value Reported": -0.0587}
{"Polymer Sequence": "RRIRVRPPRLPRPRPRPMDQPRP", "Value Reported": 0.188}
{"Polymer Sequence": "RRIRDRPPRLPRPRPRPRDHPRP", "Value Reported": 0.0411}
{"Polymer Sequence": "RRIRWRPPRLPRPRPRPRKGPRP", "Value Reported": 0.612}
{"Polymer Sequence": "RRIRHRPPRLPRPRPRPKTDPRP", "Value Reported": -0.434}
{"Polymer Sequence": "RRIRCRPPRLPRPRPRPHMMPRP", "Value Reported": -1.12}
{"Polymer Sequence": "RRIRHRPPRLPRPRPRPFAKPRP", "Value Reported": -0.362}
{"Polymer Sequence": "RRIRSRPPRLPRPRPRPRIQPRP", "Value Reported": -0.00704}
{"Polymer Sequence": "RRIRVRPPRLPRPRPRPRNRPRP", "Value Reported": -0.338}
{"Polymer Sequence": "RRIRGRPPRLPRPRPRPQREPRP", "Value Reported": 0.225}
{"Polymer Sequence": "RRIRLRPPRLPRPRPRPKSFPRP", "Value Reported": -0.0686}
{"Polymer Sequence": "RRIRARPPRLPRPRPRPHKKPRP", "Value Reported": -0.163}
{"Polymer Sequence": "RRIRWRPPRLPRPRPRPTHKPRP", "Value Reported": 0.396}
{"Polymer Sequence": "RRIRLRPPRLPRPRPRPAEDPRP", "Value Reported": -0.00769}

###

# Test system: Escherichia coli TOP10;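 further: peptides expressed intracellularly from a pBAD plasmid library in pooled LB shake-flask culture, induced with 0.3% L-arabinose, DNA abundance read by NGS, three biological replicates, DESeq2 with apeglm shrinkage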
# Test Description: shrunken log2 fold change of peptide-encoding DNA abundance (4.5 h post-induction vs induction); higher = less antimicrobial activity (less host growth inhibition)
# Condition Parameters: time post-induction: 4.5 h; library: site-saturation at positions 5, 18, 19, 20
Consider the reported shrunken log2 fold change of an entry and match it to a band in class A = under -0.3, class B = from -0.3 up to 0.4, class C = 0.4 and over

{"Polymer Sequence": "RRIRMRPPRLPRPRPRPENDPRP", "Class Label": "class C"}
{"Polymer Sequence": "RRIRPRPPRLPRPRPRPRPVPRP", "Class Label": "class C"}
{"Polymer Sequence": "RRIRVRPPRLPRPRPRPHAYPRP", "Class Label": "class A"}
{"Polymer Sequence": "RRIRDRPPRLPRPRPRPIICPRP", "Class Label": "class B"}
{"Polymer Sequence": "RRIRTRPPRLPRPRPRPSMLPRP", "Class Label": "class B"}
{"Polymer Sequence": "RRIRHRPPRLPRPRPRPWHWPRP", "Class Label": "class B"}
{"Polymer Sequence": "RRIRGRPPRLPRPRPRPDTQPRP", "Class Label": "class C"}
{"Polymer Sequence": "RRIRYRPPRLPRPRPRPSNPPRP", "Class Label": "class A"}
{"Polymer Sequence": "RRIRNRPPRLPRPRPRPCCQPRP", "Class Label": "class A"}
